Assay: Aqueous solubility by HPLC-UV on filtered saturated suspensions
Type: physicochemical
Details: water, thermodynamic from solid; HPLC-UV, saturated aqueous suspension, PTFE filter 0.2 μm; read-out: aqueous solubility (n = 3)
# solubility values compiled below
observable: solubility (µg/mL)

INSERT INTO assay_data (molecule, reading) VALUES
  ('COc1ccc(S(=O)(=O)N(Cc2ccc3c(c2)C=CC(C)(C)O3)c2ccccc2)cc1OC [Compound 1, reference compound]', 0.003),
  ('CC(C)N(Cc1ccc2c(c1)C=CC(C)(C)O2)S(=O)(=O)c1ccccn1', 0.3),
  ('CC1(C)C=Cc2cc(CN(CC3CC3)S(=O)(=O)c3ccccn3)ccc2O1', 0.1);
